Reference source: patent US9745320B2

The reader will find pIC50 measurements below, all made with UniProt P23458.
Sequence (P23458 whole entry, species assumed): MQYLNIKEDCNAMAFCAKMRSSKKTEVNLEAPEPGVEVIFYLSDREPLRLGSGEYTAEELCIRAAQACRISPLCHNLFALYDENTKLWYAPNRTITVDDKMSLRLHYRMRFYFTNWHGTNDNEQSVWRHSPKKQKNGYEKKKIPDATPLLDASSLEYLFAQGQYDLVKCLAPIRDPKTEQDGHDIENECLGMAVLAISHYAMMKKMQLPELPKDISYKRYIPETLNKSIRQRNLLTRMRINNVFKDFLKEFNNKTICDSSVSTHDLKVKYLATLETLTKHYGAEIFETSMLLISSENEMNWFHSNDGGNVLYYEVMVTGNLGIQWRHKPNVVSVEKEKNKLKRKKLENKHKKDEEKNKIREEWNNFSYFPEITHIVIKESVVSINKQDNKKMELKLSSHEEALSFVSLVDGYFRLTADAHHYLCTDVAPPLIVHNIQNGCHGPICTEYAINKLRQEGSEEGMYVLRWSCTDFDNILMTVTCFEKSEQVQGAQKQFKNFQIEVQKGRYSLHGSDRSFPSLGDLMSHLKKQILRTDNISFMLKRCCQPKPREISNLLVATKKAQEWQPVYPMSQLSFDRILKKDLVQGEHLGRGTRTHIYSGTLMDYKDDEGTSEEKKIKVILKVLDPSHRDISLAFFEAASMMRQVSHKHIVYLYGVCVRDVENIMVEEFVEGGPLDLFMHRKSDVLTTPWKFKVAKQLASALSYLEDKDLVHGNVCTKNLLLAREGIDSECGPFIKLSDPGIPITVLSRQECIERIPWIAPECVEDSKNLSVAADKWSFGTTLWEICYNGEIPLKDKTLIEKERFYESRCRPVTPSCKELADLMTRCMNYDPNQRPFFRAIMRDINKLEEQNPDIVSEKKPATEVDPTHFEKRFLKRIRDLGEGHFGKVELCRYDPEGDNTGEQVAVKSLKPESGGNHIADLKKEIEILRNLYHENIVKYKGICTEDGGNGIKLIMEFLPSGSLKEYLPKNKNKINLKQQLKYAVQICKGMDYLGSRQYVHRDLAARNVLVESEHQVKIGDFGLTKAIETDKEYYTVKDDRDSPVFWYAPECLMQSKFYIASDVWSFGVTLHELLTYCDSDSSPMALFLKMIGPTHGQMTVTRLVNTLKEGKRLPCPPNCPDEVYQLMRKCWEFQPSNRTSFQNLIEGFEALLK
pIC50: −log10 of the molar value.
observable: pIC50

>>> assay_result("CCS(=O)(=O)N1CC(CC#N)(n2cc(-c3nc(Nc4cnc(N5CCOCC5)nc4)nc4ccsc34)cn2)C1")
"6.00 to 6.30"
>>> assay_result("CCS(=O)(=O)N1CC(CC#N)(n2cc(-c3nc(Nc4cnn(C5CN(C)C5)c4)nc4ccsc34)cn2)C1")
"6.30 to 7.30"
>>> assay_result("CCS(=O)(=O)N1CC(CC#N)(n2cc(-c3nc(Nc4ccncc4)nc4ccsc34)cn2)C1")
"6.30 to 7.30"
>>> assay_result("CCS(=O)(=O)N1CC(CC#N)(n2cc(-c3nc(NC(=O)C4CC4)nc4ccsc34)cn2)C1")
"6.30 to 7.30"
>>> assay_result("CCS(=O)(=O)N1CC(CC#N)(n2cc(-c3nc(Nc4cc(C)[nH]n4)nc4ccsc34)cn2)C1")
"> 7.30"
>>> assay_result("CCS(=O)(=O)N1CC(CC#N)(n2cc(-c3nc(Nc4ccc(N5CCOCC5)nc4)nc4ccsc34)cn2)C1")
"6.30 to 7.30"
>>> assay_result("CC(C)(CO)n1cc(Nc2nc(-c3cnn(C4(CC#N)CN(S(C)(=O)=O)C4)c3)c3sccc3n2)cn1")
"> 7.30"
>>> assay_result("CCS(=O)(=O)N1CC(CC#N)(n2cc(-c3nc(Nc4cn(C)cn4)nc4ccsc34)cn2)C1")
"< 6.00"
>>> assay_result("Cn1cc(Nc2nc(-c3cnn(C4(CC#N)COC4)c3)c3sccc3n2)cn1")
"6.30 to 7.30"
>>> assay_result("CCS(=O)(=O)N1CC(CC#N)(n2cc(-c3nc(Nc4ccc(OCCN5CCCC5)cc4)nc4ccsc34)cn2)C1")
"6.30 to 7.30"
>>> assay_result("CCS(=O)(=O)N1CC(CC#N)(n2cc(-c3nc(Nc4cnn(CCCN5CCOCC5)c4)nc4ccsc34)cn2)C1")
"> 7.30"
>>> assay_result("CCS(=O)(=O)N1CC(CC#N)(n2cc(-c3nc(Nc4cnn(C)c4)nc4ccsc34)cn2)C1")
"> 7.30"
>>> assay_result("CCn1cc(Nc2nc(-c3cnn(C4(CC#N)CN(S(=O)(=O)CC)C4)c3)c3sccc3n2)cn1")
"> 7.30"
>>> assay_result("CCS(=O)(=O)N1CC(CC#N)(n2cc(-c3nc(Nc4ccc(N5CCOCC5)cc4)nc4ccsc34)cn2)C1")
"> 7.30"
>>> assay_result("Cn1cc(Nc2nc(-c3cnn(C4(CC#N)CN(S(C)(=O)=O)C4)c3)c3sccc3n2)cn1")
"> 7.30"
>>> assay_result("Cn1cc(Nc2nc(-c3cnn(C4(CC#N)COC4)c3)c3ccsc3n2)cn1")
"6.00 to 6.30"
>>> assay_result("CCS(=O)(=O)N1CC(CC#N)(n2cc(-c3nc(Nc4cnn(CCOC)c4)nc4ccsc34)cn2)C1")
"> 7.30"

* * *

Molecular target: JAK3 (Homo sapiens, UniProt P52333)
Sequence (P52333 whole entry, species assumed): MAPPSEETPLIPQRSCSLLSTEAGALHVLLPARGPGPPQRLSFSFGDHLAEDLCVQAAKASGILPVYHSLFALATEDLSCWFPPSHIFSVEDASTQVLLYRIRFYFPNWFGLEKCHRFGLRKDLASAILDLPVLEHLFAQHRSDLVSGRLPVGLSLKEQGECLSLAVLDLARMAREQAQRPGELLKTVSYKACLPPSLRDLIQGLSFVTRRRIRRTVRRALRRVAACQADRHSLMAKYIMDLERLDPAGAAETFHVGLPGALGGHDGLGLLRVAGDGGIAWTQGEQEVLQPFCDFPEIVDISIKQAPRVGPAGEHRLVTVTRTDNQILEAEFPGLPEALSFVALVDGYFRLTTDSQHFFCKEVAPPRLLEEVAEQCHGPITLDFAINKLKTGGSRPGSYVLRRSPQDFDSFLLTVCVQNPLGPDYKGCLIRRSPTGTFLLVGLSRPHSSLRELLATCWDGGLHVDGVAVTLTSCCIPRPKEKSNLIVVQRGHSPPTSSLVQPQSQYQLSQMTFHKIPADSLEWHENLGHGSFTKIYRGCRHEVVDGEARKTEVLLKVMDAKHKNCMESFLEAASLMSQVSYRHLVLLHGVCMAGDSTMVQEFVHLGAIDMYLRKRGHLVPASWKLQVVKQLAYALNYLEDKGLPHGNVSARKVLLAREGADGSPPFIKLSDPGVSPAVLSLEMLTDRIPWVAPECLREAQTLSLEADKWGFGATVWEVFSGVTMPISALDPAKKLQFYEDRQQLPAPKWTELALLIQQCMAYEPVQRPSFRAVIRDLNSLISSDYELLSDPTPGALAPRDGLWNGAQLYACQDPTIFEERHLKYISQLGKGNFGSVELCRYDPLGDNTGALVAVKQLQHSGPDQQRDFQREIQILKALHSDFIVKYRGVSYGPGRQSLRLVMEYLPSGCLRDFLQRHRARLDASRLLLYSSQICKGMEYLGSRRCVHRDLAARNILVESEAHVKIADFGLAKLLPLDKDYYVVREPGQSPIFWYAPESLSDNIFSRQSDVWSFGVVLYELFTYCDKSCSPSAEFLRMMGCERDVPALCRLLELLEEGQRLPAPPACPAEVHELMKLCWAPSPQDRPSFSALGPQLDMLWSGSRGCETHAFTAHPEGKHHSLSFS
Test: JAK 3 enzymatic inhibitory activity IC50 assay (Caliper conversion rate)
Format: biochemical
Conditions: Km ATP, 28° C., 1 hour; read-out: JAK 3 enzymatic inhibitory activity IC50
Each item that follows carries a reported IC50.
observable: IC50

>>> assay_result("Cn1cc(Nc2nc(-c3cnn(C4(CC#N)CN(C(=O)CO)C4)c3)c3sccc3n2)cn1")
"500 to 1000 nM"
>>> assay_result("CCS(=O)(=O)N1CC(CC#N)(n2cc(-c3nc(NC4CCCCC4)nc4ccsc34)cn2)C1")
"> 1000 nM"
>>> assay_result("N#CCC1(n2cc(-c3nc(Nc4cnn(C5CC5)c4)nc4ccsc34)cn2)CC1")
"50 to 500 nM"
>>> assay_result("N#Cc1ccc(-c2nc(Nc3ccccc3)nc3ccsc23)cc1F")
"> 1000 nM"
>>> assay_result("C[C@@H](CO)n1cc(Nc2nc(-c3cnn(C4(CC#N)COC4)c3)c3sccc3n2)cn1")
"50 to 500 nM"
>>> assay_result("CCS(=O)(=O)N1CC(CC#N)(n2cc(-c3nc(Nc4ccc(C#N)cc4)nc4ccsc34)cn2)C1")
"50 to 500 nM"
